Source listed as patent US20250304677A1.

- tgt: T1, human folate receptor alpha (hFRα), recombinant protein (human, UniProt P15328 25-233)
- T1 construct: Bought recombinant proteins (His-tagged, or biotinylated via Avi-tag, e.g. AcroBiosystems FO1-H82E2, F01-H52H1); also called hFOLR1; huFOLR1
- assay-remarks: BLI off-rate analysis
outcome-measure: koff (s⁻¹)
Numbers only here, please. The scale is s⁻¹.

P01500073: P01500001[E1D, G28T, S30I]Flag3-His6-GS-NT (VHH, Entry includes tags, linker and NT(8-13)) VHH: DVQLVESGGGLVQPGGSLRLSCAASGSTFIGMIMGWYRQAPGKQRELVATVTSHGTTNYADSVKGRFTISRDNAKNTVYLQMNSLRPEDTAVYYCNAHFPGIYWGKGTLVTVSS; 0.00346
P01500077: P01500001[E1D, G28T, S30I, N73P]Flag3-His6-GS-NT (VHH, Entry includes tags, linker and NT(8-13)) VHH: DVQLVESGGGLVQPGGSLRLSCAASGSTFIGMIMGWYRQAPGKQRELVATVTSHGTTNYADSVKGRFTISRDPAKNTVYLQMNSLRPEDTAVYYCNAHFPGIYWGKGTLVTVSS; 0.00217
P01500070: P01500001[E1D, I33F, N73P]Flag3-His6-GS-NT (VHH, Entry includes tags, linker and NT(8-13); produced in HEK-F cells) VHH: DVQLVESGGGLVQPGGSLRLSCAASGSGFSGMFMGWYRQAPGKQRELVATVTSHGTTNYADSVKGRFTISRDPAKNTVYLQMNSLRPEDTAVYYCNAHFPGIYWGKGTLVTVSS; 0.00151
P01500076: P01500001[E1D, G26E, G28T, S30I, I33L]Flag3-His6-GS-NT (VHH, Entry includes tags, linker and NT(8-13)) VHH: DVQLVESGGGLVQPGGSLRLSCAASESTFIGMLMGWYRQAPGKQRELVATVTSHGTTNYADSVKGRFTISRDNAKNTVYLQMNSLRPEDTAVYYCNAHFPGIYWGKGTLVTVSS; 0.00112

Query block: Item P01500075: P01500001[E1D, I33L, N73P]Flag3-His6-GS-NT (VHH, Entry includes tags, linker and NT(8-13)) VHH: DVQLVESGGGLVQPGGSLRLSCAASGSGFSGMLMGWYRQAPGKQRELVATVTSHGTTNYADSVKGRFTISRDPAKNTVYLQMNSLRPEDTAVYYCNAHFPGIYWGKGTLVTVSS : provide koff
Result block: 0.00125

Query block: Item P01500079: P01500001[E1D]Flag3-His6-GS-NT (VHH, Entry includes tags, linker and NT(8-13); also called humanised 2HFO42, P01500079) VHH: DVQLVESGGGLVQPGGSLRLSCAASGSGFSGMIMGWYRQAPGKQRELVATVTSHGTTNYADSVKGRFTISRDNAKNTVYLQMNSLRPEDTAVYYCNAHFPGIYWGKGTLVTVSS : provide koff
Result block: 0.0101

Query block: Item P01500072: P01500001[E1D, G26E, G28P, D72E, N73G]Flag3-His6-GS-NT (VHH, Entry includes tags, linker and NT(8-13)) VHH: DVQLVESGGGLVQPGGSLRLSCAASESPFSGMIMGWYRQAPGKQRELVATVTSHGTTNYADSVKGRFTISREGAKNTVYLQMNSLRPEDTAVYYCNAHFPGIYWGKGTLVTVSS : provide koff
Result block: 0.000307

Query block: Item P01500071: P01500001[E1D, G26E, I33F]Flag3-His6-GS-NT (VHH, Entry includes tags, linker and NT(8-13)) VHH: DVQLVESGGGLVQPGGSLRLSCAASESGFSGMFMGWYRQAPGKQRELVATVTSHGTTNYADSVKGRFTISRDNAKNTVYLQMNSLRPEDTAVYYCNAHFPGIYWGKGTLVTVSS : provide koff
Result block: 0.00266

Query block: Item P01500074: P01500001[E1D, G26E, I33L]Flag3-His6-GS-NT (VHH, Entry includes tags, linker and NT(8-13)) VHH: DVQLVESGGGLVQPGGSLRLSCAASESGFSGMLMGWYRQAPGKQRELVATVTSHGTTNYADSVKGRFTISRDNAKNTVYLQMNSLRPEDTAVYYCNAHFPGIYWGKGTLVTVSS : provide koff
Result block: 0.00181
